System: SF-295 CNS
Assay: NCI tumour cell line growth inhibition, 48 h
measurement_label: log10 TGI (log10 of the value in µM)
Plainly stated, the numbers are log10 of TGI given in µM.

Please look up its log10 TGI: COc1ccc2c(c1)N(Cc1ccc(Cl)cc1)CCC2N1CCCC1=O (centres undefined)
0.71

Request: C[C@@]1(CCCCCCCCCCc2ccccc2)C[C@@]2(C)OC(=O)C[C@H]2OO1
0.70

Can you check CN1CCN(Cc2ccc(NC(=O)c3cncc(C#Cc4c(N)ncc5ccc(C#N)cc45)c3)cc2C(F)(F)F)CC1 next?
1.26

Also need CCOC(=O)c1[nH]cc(C)c1-c1cccn1-c1ccc(Cl)cc1[N+](=O)[O-] , thanks.
1.92

Next molecule up: CC(=O)O[C@H]1C(=O)[C@@]2(C)[C@H]([C@H](OC(=O)c3ccccc3)[C@]3(O)C[C@H](OC(=O)[C@H](O)[C@@H](NC(=O)c4ccccc4)c4ccc5ccccc5c4)C(C)=C1C3(C)C)[C@]1(OC(C)=O)CO[C@@H]1C[C@@H]2O
0.28

Continue with Clc1ccc(CCNC2(c3cc4ccccc4s3)CCCCC2)cc1Cl
1.93
